Please provide measured Ki for the entries that follow.
# SYSTEM: sterol carrier protein-2 (SCP-2) (Homo sapiens)
# Sequence (P22307 425-547): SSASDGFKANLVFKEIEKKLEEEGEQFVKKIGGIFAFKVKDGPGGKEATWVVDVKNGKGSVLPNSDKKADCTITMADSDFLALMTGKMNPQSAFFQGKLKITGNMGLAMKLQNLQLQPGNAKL
Give bare numbers, in nM.

[[record]]
compound = "CCCCC/C=C\\C/C=C\\C/C=C\\C/C=C\\CCCC(=O)NCCO [AEA, arachidonoylethanolamide]"
units = "nM"
observed_result = 290


Turning to the following compound.
# input Look up and report Ki, with sterol carrier protein-2 (SCP-2) (Homo sapiens) as system, for CCCCC/C=C\C/C=C\C/C=C\C/C=C\CCCC(=O)OC(CO)CO
# output 200
